Test system: Plasmodium falciparum
assayProcedure: GSK_TCMDC: Inhibition of Plasmodium falciparum Dd2 in whole red blood cells, using parasite LDH activity as an index of growth. Test compounds present at 2uM
Type: functional
readoutType: Inhibition (%)
Give just the number in %; leave the unit off.

Previously resolved entries follow.
INSERT INTO assay_data (compound, readouttype, outputunit, quantitativereadout) VALUES
  ('CC(Cc1ccc(C(=O)N2CCN(C(=O)c3ccc(CC(C)NCCc4cccc(Cl)c4)cc3)CC2)cc1)NCCc1cccc(Cl)c1 (stereo not given)', 'Inhibition', '%', 85),
  ('CCCN1CCC(NCc2cn(C)nc2-c2ccc(Oc3ccccc3)cc2)CC1', 'Inhibition', '%', 44),
  ('O=C(/C=C/c1ccc(Cl)c(Cl)c1)NCCCCCN1CCCN(C(=O)Nc2ccc(Cl)cc2)CC1', 'Inhibition', '%', 0),
  ('O=C(Nc1cccc(CN2CCCN(Cc3ccc(O)cc3)CC2)c1)c1ccc2ccccc2c1.O=C(O)C(F)(F)F', 'Inhibition', '%', 78);

Need Inhibition of Cc1cc(O)c2c(c1)OC(C)(C)C=C2C1=CCN(Cc2ccccc2)CC1 , thanks. 1

Measured values drawn from ChEMBL document CHEMBL1157539 for this set.
